Test system: Hepatitis C virus
Test: Antiviral activity against HCV in human Huh7 cells after 72 hrs by cell based luciferase reporter assay
Assay type: functional, organism-based, Hepacivirus hominis
Details: Huh-7, 72 h
Outcome measure: EC50 (µM)
Provide only the numeric value, understood in µM.

Problem: What value of EC50 has been recorded for this entry: `C=C[C@@H]1C[C@]1(NC(=O)[C@@H]1C[C@@H](n2cc(-c3ccc(Cl)cc3)nn2)CN1C(=O)[C@@H](NC(=O)OC1CCCC1)C(C)(C)C)C(=O)NS(=O)(=O)C1CC1`
Solution: 0.68

Problem: Name the reported EC50 value associated with the compound `C=C[C@@H]1C[C@]1(NC(=O)[C@@H]1C[C@@H](n2cc(-c3ccc(N(C)C)cc3)nn2)CN1C(=O)[C@@H](NC(=O)OC1CCCC1)C(C)(C)C)C(=O)NS(=O)(=O)C1CC1`
Solution: 0.27

Problem: Using the record for `C=C[C@@H]1C[C@]1(NC(=O)[C@@H]1C[C@@H](n2cc(-c3cc(Br)cc(Br)c3)nn2)CN1C(=O)[C@@H](NC(=O)OC1CCCC1)C(C)(C)C)C(=O)NS(=O)(=O)C1CC1` , report its EC50.
Solution: 0.15

Problem: // query EC50 value for entry `C=C[C@@H]1C[C@]1(NC(=O)[C@@H]1C[C@@H](n2cc(-c3cc(Cl)cc(Cl)c3)nn2)CN1C(=O)[C@@H](NC(=O)OC1CCCC1)C(C)(C)C)C(=O)NS(=O)(=O)C1CC1`
Solution: 0.14

Problem: Reported EC50, compound `C=C[C@@H]1C[C@]1(NC(=O)[C@@H]1C[C@@H](n2cc(-c3ccc4c(c3)OCO4)nn2)CN1C(=O)[C@@H](NC(=O)OC1CCCC1)C(C)(C)C)C(=O)NS(=O)(=O)C1CC1` : ____
Solution: 0.19

Problem: Quick one: EC50 of `C=C[C@@H]1C[C@]1(NC(=O)[C@@H]1C[C@@H](n2cc(-c3ccsc3)nn2)CN1C(=O)[C@@H](NC(=O)OC1CCCC1)C(C)(C)C)C(=O)NS(=O)(=O)C1CC1` ?
Solution: 1.22

Problem: Which EC50 value is on record for `C=C[C@@H]1C[C@]1(NC(=O)[C@@H]1C[C@@H](n2cc(-c3ccc4c(c3)CCO4)nn2)CN1C(=O)[C@@H](NC(=O)OC1CCCC1)C(C)(C)C)C(=O)NS(=O)(=O)C1CC1` ?
Solution: 0.23

Problem: Bench note: what EC50 did `C=C[C@@H]1C[C@]1(NC(=O)[C@@H]1C[C@@H](n2cc(-c3ccccc3)nn2)CN1C(=O)[C@@H](NC(=O)OC1CCCC1)C(C)(C)C)C(=O)NS(=O)(=O)C1CC1` show?
Solution: 0.43

Problem: Dear colleague, I am looking for the recorded EC50 of the following compound: `C=C[C@@H]1C[C@]1(NC(=O)[C@@H]1C[C@@H](Oc2cc(-c3ccccc3)nc3cc(OC)ccc23)CN1C(=O)[C@@H](NC(=O)OC1CCCC1)C(C)(C)C)C(=O)O`
Solution: 0.55

Problem: Param item = `C=C[C@@H]1C[C@]1(NC(=O)[C@@H]1C[C@@H](n2cc(-c3cccc(Cl)c3)nn2)CN1C(=O)[C@@H](NC(=O)OC1CCCC1)C(C)(C)C)C(=O)NS(=O)(=O)C1CC1` ; retrieve measured EC50.
Solution: 0.17
